FYI, the data here is from patent US20140205597A1.

target: analytical polyclonal antibody obtained in Example 2; assay: SPR Biacore T100, immobilized polyclonal, 500 nM ISV

Binder: Nb6.2 (VHH) VHH: EVQLVESGGGLVQPGGSLRLSCIASGLPFSTKSMGWFRQAPGKEREFVARISPGGTSRYYGDFVKGRFAISRDNAKNTTWLQMNSLKAEDTAVYYCASGERSTYIGSNYYRTNEYDYWGTGTQVTVSS
Quantity Unit: RU
Binding (RU): 39
//
Binder: Nb3.14 (VHH) VHH: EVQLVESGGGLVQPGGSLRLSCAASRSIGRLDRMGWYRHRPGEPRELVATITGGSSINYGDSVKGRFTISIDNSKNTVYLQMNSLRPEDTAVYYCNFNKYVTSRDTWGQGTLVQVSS
Quantity Unit: RU
Binding (RU): 79
//
Binder: Nb3.15 (VHH) VHH: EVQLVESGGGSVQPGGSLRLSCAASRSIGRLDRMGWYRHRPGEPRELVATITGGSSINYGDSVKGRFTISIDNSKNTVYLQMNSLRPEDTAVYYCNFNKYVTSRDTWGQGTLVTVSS
Quantity Unit: RU
Binding (RU): 22
//
Binder: Nb3.10 (VHH) VHH: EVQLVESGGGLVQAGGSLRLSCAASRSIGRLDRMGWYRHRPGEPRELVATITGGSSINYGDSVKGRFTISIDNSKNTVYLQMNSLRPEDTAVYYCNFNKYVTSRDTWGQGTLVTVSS
Quantity Unit: RU
Binding (RU): 91
